Source listed as PubChem BioAssay (NCI).

Entries annotated with measured TGI
- Tested on: IGROV1 ovarian
- Assay Procedure: NCI tumour cell line growth inhibition, 48 h
Where a SMILES comes first, the peptide text is derived from it. The star is where a group is joined. Boc = CC(C)(C)OC(=O)*; Bn = c1ccc(C*)cc1

Compound	Measured Target	Test Readout	Reported
O=C1CC2(CCNCC2)C(=O)N1N1CCCCC1	IGROV1 ovarian	TGI	> 100 µM

Incoming: Which TGI is reported for this compound? CC(C)(C)CN1[C@@H]2CCCC[C@H]2N(CC(C)(C)C)P1(=O)C(O)/C=C/c1ccccc1 (some centres undefined)
Outgoing: > 100 µM

Incoming: What does the data say about its TGI? Entry: COc1ccc(/C(=C\c2cc(OC)c(OC)c(OC)c2)C(=O)O)cc1
Outgoing: > 100 µM

Incoming: Could you tell me which TGI is on file for Cc1cccc(Cl)c1NC(=O)c1cccc([N+](=O)[O-])c1O ?
Outgoing: > 100 µM

Incoming: State the recorded TGI for this entry: O=C1O/C(=C\C=C\CO)C=C1/C=C/CO
Outgoing: 38.6 µM

Incoming: Quick check: TGI of COc1ccccc1Nc1nc2ccccc2c2occc12 ?
Outgoing: 39.5 µM

Incoming: May I ask what TGI has been recorded for CC(=O)c1c(C)cc2cccc(OC3OC(CO)C(O)C(O)C3O)c2c1O (centres undefined) (tested in a mixture with another compound) ?
Outgoing: > 100 µM

Incoming: Looking for the measured TGI of O=C(/N=C1/OC(CN2CCOCC2)CN1C(=O)Nc1ccccc1)Nc1ccccc1 (centres undefined) , can you help?
Outgoing: > 100 µM

Incoming: Value lookup for TGI; key = O=C1O/C(=C(/Cl)c2c3ccccc3cc3ccccc23)c2ccccc21
Outgoing: 71.2 µM

Incoming: Which TGI value is on record for COC(=O)C(CC(C)C)NC(=O)CNC(=O)C(Cc1ccc(OCc2ccccc2)cc1)NC(=O)C(COCc1ccccc1)NC(=O)OC(C)(C)C (centres undefined) (Boc-S(Bn)Y(Bn)GL-OMe; configuration not given here) ?
Outgoing: > 100 µM

Incoming: Entry COc1ccc(C(=O)C/C(=N/NC(N)=S)C(=O)Nc2ccccc2)cc1 : reported TGI = ?
Outgoing: > 100 µM

Incoming: Reported TGI for O=C(c1ccccc1)c1ccc(O)c2ncccc12 : what is it?
Outgoing: 11.9 µM

Incoming: Please give the measured TGI for this compound: CC(C)(C)OC(=O)NC(Cc1ccc(OCc2ccccc2)cn1)C(N)=O (centres undefined)
Outgoing: > 100 µM

Incoming: Could you share which TGI value was measured for COC1=CC(=O)c2c(n[nH]c2CCNC(=O)OCc2ccccc2)C1=O ?
Outgoing: 29 µM
